Tested on: Plasmodium berghei
Experiment: Screen against P. berghei liver stage (PbLuc), transformed with Luciferase, at 2uM
Type: functional, HepG2
Settings: tested at 2 uM
The whole screen tested about 68,000 compounds, of which about 2,700 (4%) showed an effect of 50% or more. The entries come from a sample that favours strong results as a whole.
I'd be grateful if you could share measured INHIBITION for these entries.
One number for each entry, in %.

Check out these entries, answers already filled in.
[[record]]
compound = "CC(C)Oc1ncc(C(=O)N2CCC(N(C)C)CC2)cc1Cl"
property_measured = "INHIBITION"
reported_result = 55.36

[[record]]
compound = "COC(=O)C1CCN(C(=O)NCC(C)Cc2cccs2)CC1 (configuration not stated)"
property_measured = "INHIBITION"
reported_result = 55.39

[[record]]
compound = "O=C(c1ccccn1)N1C[C@H]2CC[C@@H](C1)N(C(=O)CCc1cccs1)C2"
property_measured = "INHIBITION"
reported_result = -89.49


Would you mind listing INHIBITION for each of the following compounds?
1. CC(C)Oc1ncc(C(=O)N2CCCC(C(=O)O)C2)cc1Cl (configuration not stated)
2. CC(CNC(=O)N1CCNC(=O)CC1)Cc1cccs1 (configuration not stated)
3. CC(C)Oc1ncc(C(=O)N2CCC(CC(N)=O)CC2)cc1Cl
4. CC(=O)N(C)C1CCN(C(=O)NCC(C)Cc2cccs2)CC1 (configuration not stated)
5. COc1ncc(-c2ccc(C(N)=O)cc2)c(OC)n1
6. CC(CNC(=O)N1CCN(CC(F)F)CC1)Cc1cccs1 (configuration not stated)
7. CCN1CCCN(C(=O)c2cnc(OC(C)C)c(Cl)c2)CC1
8. Cc1ccccc1OCC(O)CN1CCC(Cn2cccn2)CC1 (configuration not stated)

1: 0.51; 2: 57.59; 3: 64.9; 4: 60.9; 5: 29.41; 6: -47.2; 7: -16.16; 8: 33.22

Requested field: INHIBITION. Item: CSc1ccc(OC(C)C(=O)Nc2c(C)n[nH]c2C)cc1 (configuration not stated)
3.5

* * *

System: Plasmodium berghei
Assay: Screen against P. berghei liver stage (PbLuc), transformed with Luciferase, at 2uM
Assay type: functional, HepG2
Settings: tested at 2 uM
In all, about 68,000 compounds went through this assay and about 2,700 (4%) showed an effect of 50% or more. The sample as a whole holds a higher share of strong results than the screen did.
Field 'label' (enum: criterion met / criterion not met). Set to criterion met when INHIBITION is strictly under 20%; else criterion not met.

[[record]]
compound = "COc1ccc(-c2nc(C3CCNCC3)cc3c2ncn3C)cc1"
qualitative_label = "criterion met"


Below 20% on INHIBITION? Entry `CN1CCN(C=C2N=C(c3cc(-c4ccc(F)cc4)n[nH]3)ON2)CC1`
criterion not met

Below 20% on INHIBITION? Entry `Cc1ccc(C(=O)N2CCO[C@H]3[C@H](OCc4ccccn4)CC[C@@H]32)o1`
criterion not met

Below 20% on INHIBITION? Entry `OC1(Cn2ccc3ncccc32)CCN(Cc2ccccn2)CC1`
criterion met

Below 20% on INHIBITION? Entry Cc1nc(CN2CCCC(NCCCOc3ccc(F)cc3)C2)no1 (stereo unspecified)
criterion met

Below 20% on INHIBITION? Entry `CC(C)c1nc(C(=O)N2C[C@H](C(C)C)[C@@H](N)C2)cs1`
criterion not met

Below 20% on INHIBITION? Entry CCOC(=O)N1CCC(NC(=O)c2cccc(C3CCCNC3)c2)CC1 (stereo unspecified)
criterion not met

Below 20% on INHIBITION? Entry CC(C)c1nc(C(=O)N2CCCC(N)CC2)cs1 (stereo unspecified)
criterion met
